Source of measurements: ChEMBL document CHEMBL4270570

test: Effective permeability of the compound at 10 uM after 5 hrs by PAMPA
Assay type: ADME
So basically: Peff at 0.04 ×10⁻⁶ cm/s or higher? That is TRUE. Lower than 0.04 ×10⁻⁶ cm/s? That is FALSE.

Incoming: Textbook exercise: given the entry O=c1cc(Sc2ccc(Cl)cc2)[nH]c(=O)n1O , state whether its Peff is greater than or equal to 0.04 ×10⁻⁶ cm/s.
Outgoing: TRUE

Incoming: Textbook exercise: given the entry COc1ccc(-c2ccc(Sc3cc(=O)n(O)c(=O)[nH]3)cc2)cc1OC , state whether its Peff is greater than or equal to 0.04 ×10⁻⁶ cm/s.
Outgoing: TRUE

Incoming: Textbook exercise: given the entry Cc1ccc(Sc2cc(=O)n(O)c(=O)[nH]2)cc1 , state whether its Peff is greater than or equal to 0.04 ×10⁻⁶ cm/s.
Outgoing: TRUE

Incoming: Textbook exercise: given the entry O=c1cc(Sc2ccc([N+](=O)[O-])cc2)[nH]c(=O)n1O , state whether its Peff is greater than or equal to 0.04 ×10⁻⁶ cm/s.
Outgoing: FALSE

---

For each entry below, report its log10(IC50) value.
study system: Human immunodeficiency virus type 1 reverse transcriptase (Human immunodeficiency virus 1, UniProt Q72547)
Remember, log10 of IC50, in nM.

Incoming: Record request: log10(IC50) value, item CCc1ccc(Sc2cc(=O)n(O)c(=O)[nH]2)cc1
Outgoing: 1.00

Incoming: Record request: log10(IC50) value, item O=c1cc(Sc2ccccc2F)[nH]c(=O)n1O
Outgoing: 1.18

Incoming: Record request: log10(IC50) value, item O=c1cc(Sc2ccc(-c3ccc(C(F)(F)F)cc3)cc2)[nH]c(=O)n1O
Outgoing: 1.59

Incoming: Record request: log10(IC50) value, item Cc1ccc(Sc2cc(=O)n(O)c(=O)[nH]2)cc1
Outgoing: 1.52

Incoming: Record request: log10(IC50) value, item COc1ccc(Sc2cc(=O)n(O)c(=O)[nH]2)cc1
Outgoing: 1.08

Incoming: Record request: log10(IC50) value, item O=c1cc(Sc2ccc(-c3ccccc3)cc2)[nH]c(=O)n1O
Outgoing: 1.95

Incoming: Record request: log10(IC50) value, item O=c1cc(Sc2cccc(Br)c2)[nH]c(=O)n1O
Outgoing: 1.04

Incoming: Record request: log10(IC50) value, item O=c1cc(Sc2ccccc2-c2ccc(C(F)(F)F)cc2)[nH]c(=O)n1O
Outgoing: 1.11

Incoming: Record request: log10(IC50) value, item COc1ccc(-c2ccc(Sc3cc(=O)n(O)c(=O)[nH]3)cc2)cc1OC
Outgoing: 0.60

Incoming: Record request: log10(IC50) value, item O=c1[nH]c(Sc2ccc(Br)cc2)c(I)c(=O)n1O
Outgoing: 2.08

Incoming: Record request: log10(IC50) value, item COc1ccc(-c2ccc(Sc3cc(=O)n(O)c(=O)[nH]3)cc2)cc1F
Outgoing: 0.60

---

For each entry below, report its pIC50 value.
API: returns pIC50 as number; meaning -log10 of concentration in mol/L.

Incoming: Entry O=c1cc(Sc2cccc(Br)c2)[nH]c(=O)n1O , system Human immunodeficiency virus type 1 integrase (Human immunodeficiency virus 1): what pIC50 was measured?
Outgoing: 5.92

Incoming: Entry O=c1cc(Sc2cccc(-c3cccc(F)c3)c2)[nH]c(=O)n1O , system Human immunodeficiency virus type 1 integrase (Human immunodeficiency virus 1): what pIC50 was measured?
Outgoing: 6.62

Incoming: Entry CCc1ccc(Sc2cc(=O)n(O)c(=O)[nH]2)cc1 , system Human immunodeficiency virus type 1 integrase (Human immunodeficiency virus 1): what pIC50 was measured?
Outgoing: 5.89

Incoming: Entry O=c1cc(Sc2ccccc2F)[nH]c(=O)n1O , system Human immunodeficiency virus type 1 integrase (Human immunodeficiency virus 1): what pIC50 was measured?
Outgoing: 6.11

Incoming: Entry O=c1cc(Sc2ccc(-c3ccc(O)cc3)cc2)[nH]c(=O)n1O , system Human immunodeficiency virus type 1 integrase (Human immunodeficiency virus 1): what pIC50 was measured?
Outgoing: 6.77

---

For each entry below, report its IC50 value.
study system: Gag-Pol polyprotein (Human immunodeficiency virus type 1 group M subtype B (isolate HXB2)(HIV-1), UniProt P04585)
test: Inhibition of HIV1 reverse transcriptase polymerase activity using 18 nucleotide DNA primer and 100 nucleotide DNA template after 30 mins
# unit: µM | format: bare number

Incoming: Record request: IC50 value, item COc1ccc(-c2ccc(Sc3cc(=O)n(O)c(=O)[nH]3)cc2)cc1
Outgoing: 10

Incoming: Record request: IC50 value, item O=c1cc(Sc2ccc(-c3ccccc3)cc2)[nH]c(=O)n1O
Outgoing: 3.2

Incoming: Record request: IC50 value, item O=c1cc(Sc2cccc(-c3ccc(F)c(Cl)c3)c2)[nH]c(=O)n1O
Outgoing: 5.6

Incoming: Record request: IC50 value, item Cc1ccc(-c2ccc(Sc3cc(=O)n(O)c(=O)[nH]3)cc2)cc1
Outgoing: 7

Incoming: Record request: IC50 value, item O=c1cc(Sc2cccc(-c3ccc(C(F)(F)F)cc3)c2)[nH]c(=O)n1O
Outgoing: 10

Incoming: Record request: IC50 value, item O=c1cc(Sc2cccc(-c3cccc(F)c3)c2)[nH]c(=O)n1O
Outgoing: 9.6

Incoming: Record request: IC50 value, item COc1cccc(-c2ccc(Sc3cc(=O)n(O)c(=O)[nH]3)cc2)c1
Outgoing: 10

Incoming: Record request: IC50 value, item O=c1cc(Sc2ccc(-c3cccc(F)c3)cc2)[nH]c(=O)n1O
Outgoing: 10

Incoming: Record request: IC50 value, item O=c1[nH]c(Sc2ccc(Br)cc2)c(Br)c(=O)n1O
Outgoing: 5

Incoming: Record request: IC50 value, item O=c1cc(Sc2ccc(Br)cc2)[nH]c(=O)n1O
Outgoing: 7

Incoming: Record request: IC50 value, item O=c1cc(Sc2ccc(-c3ccc(C(F)(F)F)cc3)cc2)[nH]c(=O)n1O
Outgoing: 8.4

Incoming: Record request: IC50 value, item O=c1[nH]c(Sc2ccc(Br)cc2)c(I)c(=O)n1O
Outgoing: 0.46

Incoming: Record request: IC50 value, item O=c1cc(Sc2cccc(-c3ccc(F)cc3)c2)[nH]c(=O)n1O
Outgoing: 9.9

Incoming: Record request: IC50 value, item O=c1cc(Sc2cccc(-c3ccc(Cl)cc3)c2)[nH]c(=O)n1O
Outgoing: 7.8

Incoming: Record request: IC50 value, item O=c1cc(Sc2cccc(-c3cccc(C(F)(F)F)c3)c2)[nH]c(=O)n1O
Outgoing: 7.7

Incoming: Record request: IC50 value, item COc1ccc(-c2ccc(Sc3cc(=O)n(O)c(=O)[nH]3)cc2)cc1F
Outgoing: 6.8

Incoming: Record request: IC50 value, item COc1ccc(-c2ccc(Sc3cc(=O)n(O)c(=O)[nH]3)cc2)cc1OC
Outgoing: 10

Incoming: Record request: IC50 value, item O=c1cc(Sc2cccc3ccccc23)[nH]c(=O)n1O
Outgoing: 10

---

study system: Human immunodeficiency virus type 1 integrase (Human immunodeficiency virus 1, UniProt Q7ZJM1)
Sequence (Q7ZJM1 whole entry): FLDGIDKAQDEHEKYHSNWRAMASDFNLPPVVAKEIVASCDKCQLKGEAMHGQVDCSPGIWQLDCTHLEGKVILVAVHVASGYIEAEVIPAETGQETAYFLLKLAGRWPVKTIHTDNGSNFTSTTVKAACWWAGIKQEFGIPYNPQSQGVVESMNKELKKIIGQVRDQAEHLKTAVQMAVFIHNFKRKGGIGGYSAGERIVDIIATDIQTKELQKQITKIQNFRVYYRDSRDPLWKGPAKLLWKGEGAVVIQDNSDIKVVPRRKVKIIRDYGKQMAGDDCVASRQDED
For each entry below, report its IC50 value.

Incoming: Record request: IC50 value, item O=c1cc(Sc2cccc(-c3ccc(F)c(Cl)c3)c2)[nH]c(=O)n1O
Outgoing: > 1000 nM

Incoming: Record request: IC50 value, item O=c1cc(Sc2ccc(C(F)(F)F)cc2)[nH]c(=O)n1O
Outgoing: > 10000 nM

Incoming: Record request: IC50 value, item Cc1ccc(-c2ccc(Sc3cc(=O)n(O)c(=O)[nH]3)cc2)cc1
Outgoing: > 1000 nM

Incoming: Record request: IC50 value, item O=c1cc(Sc2cccc3ccccc23)[nH]c(=O)n1O
Outgoing: 790 nM

Incoming: Record request: IC50 value, item COc1ccc(-c2ccc(Sc3cc(=O)n(O)c(=O)[nH]3)cc2)cc1OC
Outgoing: 330 nM

Incoming: Record request: IC50 value, item O=c1cc(Sc2ccc(-c3cccc(F)c3)cc2)[nH]c(=O)n1O
Outgoing: > 1000 nM

---

study system: Human immunodeficiency virus type 1 reverse transcriptase (Human immunodeficiency virus 1)
Rule for this label: T means IC50 is less than 10 nM; F means IC50 is at least 10 nM.

Incoming: Is the reported IC50 for O=c1cc(Sc2ccc(F)cc2)[nH]c(=O)n1O strictly below 10 nM?
Outgoing: F

Incoming: Is the reported IC50 for O=c1cc(Sc2ccc(-c3ccc(Cl)cc3)cc2)[nH]c(=O)n1O strictly below 10 nM?
Outgoing: T

Incoming: Is the reported IC50 for O=c1cc(Sc2ccc(-c3cccc(F)c3)cc2)[nH]c(=O)n1O strictly below 10 nM?
Outgoing: T

Incoming: Is the reported IC50 for O=c1cc(Sc2ccc(-c3cccc(C(F)(F)F)c3)cc2)[nH]c(=O)n1O strictly below 10 nM?
Outgoing: T

Incoming: Is the reported IC50 for O=c1cc(Sc2cccc(-c3cccc(C(F)(F)F)c3)c2)[nH]c(=O)n1O strictly below 10 nM?
Outgoing: T

Incoming: Is the reported IC50 for O=c1cc(Sc2ccc(O)cc2)[nH]c(=O)n1O strictly below 10 nM?
Outgoing: F

Incoming: Is the reported IC50 for COc1cccc(Sc2cc(=O)n(O)c(=O)[nH]2)c1 strictly below 10 nM?
Outgoing: F

Incoming: Is the reported IC50 for O=c1cc(Sc2ccc([N+](=O)[O-])cc2)[nH]c(=O)n1O strictly below 10 nM?
Outgoing: F

Incoming: Is the reported IC50 for O=c1[nH]c(Sc2ccc(Br)cc2)c(Br)c(=O)n1O strictly below 10 nM?
Outgoing: F

Incoming: Is the reported IC50 for COc1cc(OC)cc(-c2ccc(Sc3cc(=O)n(O)c(=O)[nH]3)cc2)c1 strictly below 10 nM?
Outgoing: T
